# assay explanation: chemical genetic growth profiling, strain panel (AID 1159580);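 further: tested at 20 µM; growth read once vehicle control cultures reached saturation at 30 °C; 1 = growth at the plate median or of vehicle wells; lower values mean less growth of the strain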
# experimental parameters: S. cerevisiae deletion strains, growth OD, locus YBR231C, strain swc5, stronger effect = lower value
The whole screen tested about 5,500 compounds, of which about 2,000 (36%) were called active. Inconclusive results (about 18%) are left out. The list shows a part of the results.
reported metric: normalized growth
Lab note: record the figure alone, no unit after it.

[[record]]
compound = "CC12CCC(=O)C=C1CCc1ccccc12 (stereo not drawn)"
meas_value = 0.985

[[record]]
compound = "CCCCC(=O)O[C@]1(C(=O)CO)[C@@H](C)CC2C3CCC4=CC(=O)C=C[C@]4(C)[C@@]3(F)C(O)C[C@@]21C (stereo partly drawn)"
meas_value = 0.948

[[record]]
compound = "CCC(=O)OCC(=O)[C@@]1(OC(=O)CC)[C@@H](C)CC2C3CCC4=CC(=O)C=C[C@]4(C)C3(F)[C@@H](O)C[C@@]21C (stereo partly drawn)"
meas_value = 1.01

[[record]]
compound = "COc1cccc2c1CCC1=CC(=O)CC[C@@]12C"
meas_value = 1.02

[[record]]
compound = "CC1(C)O[C@@H]2CC3C4C[C@H](F)C5=CC(=O)CC[C@]5(C)C4[C@@H](O)C[C@]3(C)[C@]2(C(=O)CO)O1 (stereo partly drawn)"
meas_value = 1

[[record]]
compound = "CCCc1nc(C)c2c(=O)[nH]c(-c3cc(S(=O)(=O)N4CCN(CC)CC4)ccc3OCC)nn12"
meas_value = 0.97


Record request: normalized growth value, item CCC(=O)OCC(=O)C1(OC(=O)CC)C(C)CC2C3C(Cl)CC4=CC(=O)C=CC4(C)C3C(O)CC21C (stereo not drawn)
1.02

// same read-out, input: CCC(=O)O[C@]1(C(=O)CCl)[C@@H](C)CC2C3CCC4=CC(=O)C=C[C@]4(C)[C@@]3(F)[C@@H](O)C[C@@]21C (stereo partly drawn)
1.02
